Tested on: Colinus virginianus
Measurement Setup: short-term; duration: 5 days; oral; diet; food consumption

# Compound, Reading Unit, NOEL
records = [
    ("N#Cc1nn(-c2c(Cl)cc(C(F)(F)F)cc2Cl)c(N)c1S(=O)(=O)C(F)(F)F", "mg/kg-day", 7.83),
    ("N#Cc1nn(-c2c(Cl)cc(C(F)(F)F)cc2Cl)c(N)c1C(F)(F)F", "mg/kg-day", 7.12),
    ("N#Cc1nn(-c2c(Cl)cc(C(F)(F)F)cc2Cl)c(N)c1S(=O)C(F)(F)F (centres undefined)", "mg/kg-day", 3.77),
    ("N#Cc1nn(-c2c(Cl)cc(C(F)(F)F)cc2Cl)c(N)c1SC(F)(F)F [Fipronil sulfide]", "mg/kg-day", 6.98),
]
